assayed_target: SARS-CoV-2 RBD (SARS-CoV-2, UniProt P0DTC2)
assay_explanation: ELISA
assay_endpoint: EC50 (ng/mL)
One number for each entry, in ng/mL.

binder	EC50 [ng/mL]
C211 (antibody, V domains shown) VH: EVQLVESGGGLVQPGGSLRLSCAASEFTVSSNYMSWVRQAPGKGLEWVSVIYSGGSTFYADSVKGRFTISRDNSKNTLYLQMNSLRPEDTAVYYCARDYGDFYFDFWGQGTLVTVSS VL: EIVMTQSPATLSVSPGERATLSCRASQSVSSNLAWYQQKPGQGPRLLIYGASTRATGIPARFSGSGSGTEFTLTISSLQSEDFAVYYCQQYNNWPRTFGQGTKVEIK	2.82

Value lookup for EC50; key = C120 (antibody, V domains shown) VH: EVQLVESGGGLIQPGGSLRLSCAASGFTVSSNYMTWVRQAPGKGLEWVSLIYPGGSTYYADSVKGRFTISRDNSKNTLYLQMNSLRAEDTAVYYCAREGMGMAAAGTWGQGTLVTVSS VL: AIRMTQSPSSLSASVGDTVTITCQASQDISKYLNWYQQKPGKAPKLLIYDASNLETGVPSRFSGSGSGTDFTFTISSLQPEDIATYYCQQYDNLPQTFGGGTKVEIK
1.41
